- target of assay: HCV NS5B RdRp genotype 1b (Hepatitis C virus genotype 1b, UniProt Q9WMX2)
- Construct: The protein was expressed with an 18 amino acid C-terminal truncation to enhance the solubility; made in house; host or cells: E. coli BL21(DE3), pET21a vector
- Sequence (Q9WMX2 2420-2992): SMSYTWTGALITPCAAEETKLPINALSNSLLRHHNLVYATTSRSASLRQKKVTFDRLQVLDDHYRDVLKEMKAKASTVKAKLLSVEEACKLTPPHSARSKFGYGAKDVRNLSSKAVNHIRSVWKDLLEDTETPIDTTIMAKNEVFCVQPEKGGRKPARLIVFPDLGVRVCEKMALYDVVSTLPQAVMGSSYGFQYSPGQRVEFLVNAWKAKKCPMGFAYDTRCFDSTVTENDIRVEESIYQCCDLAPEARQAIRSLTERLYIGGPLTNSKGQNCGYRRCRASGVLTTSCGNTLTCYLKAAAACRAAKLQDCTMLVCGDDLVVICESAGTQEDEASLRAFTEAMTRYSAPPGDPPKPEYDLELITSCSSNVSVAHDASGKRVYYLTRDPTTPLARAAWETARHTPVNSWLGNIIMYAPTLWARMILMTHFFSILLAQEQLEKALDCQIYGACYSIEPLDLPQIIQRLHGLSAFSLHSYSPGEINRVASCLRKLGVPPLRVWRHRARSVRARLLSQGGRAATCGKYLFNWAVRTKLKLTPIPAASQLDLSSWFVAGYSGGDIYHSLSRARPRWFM
- assay comment: Standard HCV NS5B RdRp enzyme assay
- Type: biochemical
- stated conditions: Table 1a; HCV NS5B RdRp genotype 1b; read-out: IC50
pIC50: −log10 of the molar value.
Readings of pIC50 for the listed compounds
recorded endpoint: pIC50

> print(dat)
                                    compound        result
 1  CNC(=O)c1c(-c2ccc(F)cc2)oc2ccc(-c3cccc(C(=O)N4CC[C@H](NC(C)=O)C4)c3)cc12 [drawing 277]  5.00 to 6.00
 2  CNC(=O)c1c(-c2ccc(F)cc2)oc2ccc(-c3cccc(C(=O)NCC(C)(C)C)c3)cc12        > 6.60
 3  CNC(=O)c1c(-c2ccc(F)cc2)oc2ccc(-c3cccc(C(=O)NC(C)c4ccc(F)cc4)c3)cc12 (stereo not drawn)        > 6.60
 4  CN1CN(C)c2c(-c3cccc(C(=O)NC(C)(C)c4ccccc4)c3)ccc3oc(-c4ccc(F)cc4)c(c23)C1=O        < 5.00
 5  CNC(=O)c1c(-c2ccc(F)cc2)oc2cc([N+](=O)[O-])c(-c3cccc(C(=O)O)c3)cc12  5.00 to 6.00
 6  CNC(=O)c1c(-c2ccc(F)cc2)oc2ccc(-c3ccc(C(=O)N4CCCC4)cc3)cc12  5.00 to 6.00
 7  CNC(=O)c1c(-c2ccc(F)cc2)oc2ccc(-c3cccc(C(=O)NC(C)C)c3)cc12        > 6.60
 8  CNC(=O)c1c(-c2ccc(F)cc2)oc2ccc(-c3cccc(C(=O)N(C)CCOC)c3)cc12  5.00 to 6.00
 9  CNC(=O)Nc1c(-c2ccc(F)cc2)oc2ccc(OC(C)C)cc12        < 5.00
10  CNC(=O)c1c(-c2ccc(F)cc2)oc2ccc(-c3cccc(C(=O)NC(C)(C)c4ccccc4)c3)c(NC(C)=O)c12  5.00 to 6.00
11  CNC(=O)c1c(-c2ccc(F)cc2)oc2ccc(-c3cc(Cl)cnc3F)cc12        < 5.00
12  CNC(=O)c1c(-c2ccc(F)cc2)oc2ccc(-c3ccc(C(=O)N(C)CCc4ccccn4)cc3)cc12        > 6.60
13  CNC(=O)c1c(-c2ccc(F)cc2)oc2ccc(-c3cccc(C(=O)N4CCC(C)CC4)c3)cc12  5.00 to 6.00
14  CNC(=O)c1c(-c2ccc(F)cc2)oc2ccc(-c3cccc(C(=O)NCC(N)=O)c3)cc12        < 5.00
15  CNC(=O)c1c(-c2ccc(F)cc2)oc2ccc(-c3cccc(CO)c3)cc12        < 5.00
16  CNC(=O)c1c(-c2ccc(F)cc2)oc2ccc(-c3cccc(C(=O)N[C@@H](C)C(=O)NC)c3)cc12  6.00 to 6.60
17  C=CCOC(=O)[C@H](C)NC(=O)c1cccc(-c2ccc3oc(-c4ccc(F)cc4)c(C(=O)NC)c3c2)c1        > 6.60
18  CNC(=O)c1c(-c2ccc(F)cc2)oc2ccc(-c3cccc(S(=O)(=O)NC(C)C)c3)cc12        < 5.00

* * *

- Tested on: HCV replicon cells
- assay comment: HCV replicon FRET / luciferase assay (96-well plates)
- Type: cell-based
- stated conditions: Hepatitis C virus, Table 1b; HCV replicon; read-out: EC50
recorded endpoint: EC50

> print(dat)
                                    molecule     target.of.assay            result
 1  CNC(=O)c1c(-c2ccc(F)cc2)oc2ccc(-c3cccc(-c4nc(C(C)C)no4)c3)cc12  HCV replicon cells    250 to 1000 nM
 2  CNC(=O)c1c(-c2ccc(F)cc2)oc2ccc(-c3cc(C(=O)NCC(C)C)ccc3OC(F)F)cc12  HCV replicon cells          < 250 nM
 3  CNC(=O)c1c(-c2ccc(F)cc2)oc2ccc(-c3cc(OCCn4ccnc4)cc(C(=O)NCC(C)C)c3)cc12  HCV replicon cells  1000 to 10000 nM
 4  CNC(=O)c1c(-c2ccc(F)cc2)oc2ccc(-c3cc(C(=O)NC4(C(=O)O)CC4)ccc3C)cc12  HCV replicon cells  1000 to 10000 nM
 5  CNC(=O)c1c(-c2ccc(F)cc2)oc2ccc(-c3c(C)ccc(C(=O)O)c3OC)cc12  HCV replicon cells        > 10000 nM
 6  CNC(=O)c1c(-c2ccc(F)cc2)oc2ccc(-c3cc(OC)cc(C(=O)NCC(C)C)c3)cc12  HCV replicon cells    250 to 1000 nM
 7  CNC(=O)c1c(-c2ccc(F)cc2)oc2ccc(-c3cc(C(=O)NC4(c5cccnc5)CC4)ccc3C)cc12  HCV replicon cells          < 250 nM
 8  CNC(=O)c1c(-c2ccc(F)cc2)oc2ccc(-c3cccc(C(=O)NC(C)(C)c4ccncc4)c3)cc12  HCV replicon cells          < 250 nM
 9  CNC(=O)c1c(-c2ccc(F)cc2)oc2ccc(-c3cc(C(=O)NC4(c5ccccn5)CC4)cc(F)c3C)cc12 [drawing 558]  HCV replicon cells          < 250 nM
10  CNC(=O)c1c(-c2ccccc2)oc2ccc(-c3cc(C(=O)NC4(c5nc(-c6ccccn6)no5)CC4)ccc3C)cc12  HCV replicon cells          < 250 nM
11  CNC(=O)c1c(-c2ccc(F)cc2)oc2ccc(-c3cc(OCCCCN)cc(C(=O)NCC(C)C)c3)cc12  HCV replicon cells  1000 to 10000 nM
12  CNC(=O)c1c(-c2ccc(F)cc2)oc2ccc(-c3cc(C(=O)NC4(c5nnc(-c6ccc(OC)cc6)[nH]5)CC4)ccc3C)cc12  HCV replicon cells          < 250 nM
13  CNC(=O)c1c(-c2ccc(F)cc2)oc2ccc(-c3cc(C(=O)NC4(c5ccccn5)CC4)ccc3OC(F)(F)F)cc12  HCV replicon cells          < 250 nM

* * *

- target of assay: HCV NS5B RdRp genotype 1b (Hepatitis C virus genotype 1b, UniProt Q9WMX2)
- Construct: The protein was expressed with an 18 amino acid C-terminal truncation to enhance the solubility; made in house; host or cells: E. coli BL21(DE3), pET21a vector
- assay comment: Standard HCV NS5B RdRp enzyme assay
- Format: biochemical
- stated conditions: Table 1b; HCV NS5B RdRp genotype 1b; read-out: IC50
recorded endpoint: IC50

> print(dat)
                                    compound                           target.of.assay  recorded.endpoint            result
 1  CNC(=O)c1c(-c2ccc(F)cc2)oc2ccc(-c3cc(C(=O)NCC(C)C)ccc3OCCC(C)C)cc12  HCV NS5B RdRp genotype 1b (Hepatitis C virus genotype 1b, UniProt Q9WMX2)               IC50        > 10000 nM
 2  CNC(=O)c1c(-c2ccc(F)cc2)oc2ccc(-c3cc(C(=O)NC4(C(=O)OC)CC4)ccc3C)cc12  HCV NS5B RdRp genotype 1b (Hepatitis C virus genotype 1b, UniProt Q9WMX2)               IC50          < 250 nM
 3  CNC(=O)c1c(-c2ccc(F)cc2)oc2ccc(-c3cc(C(=O)NC4(C#N)CC4)ccc3C)cc12  HCV NS5B RdRp genotype 1b (Hepatitis C virus genotype 1b, UniProt Q9WMX2)               IC50          < 250 nM
 4  CNC(=O)c1c(-c2ccc(F)cc2)oc2ccc(-c3cc(C(=O)NC4(c5ccccn5)CC4)c(OC)cc3OCC(N)=O)cc12  HCV NS5B RdRp genotype 1b (Hepatitis C virus genotype 1b, UniProt Q9WMX2)               IC50           < 20 nM
 5  CNC(=O)c1c(-c2ccc(F)cc2)oc2ccc(-c3cc(OCc4ccoc4)cc(C(=O)NCC(C)C)c3)cc12  HCV NS5B RdRp genotype 1b (Hepatitis C virus genotype 1b, UniProt Q9WMX2)               IC50  1000 to 10000 nM
 6  CNC(=O)c1c(-c2ccc(F)cc2)oc2ccc(-c3ccc(Cl)c(C(=O)NC4(c5ccccn5)CC4)c3)cc12  HCV NS5B RdRp genotype 1b (Hepatitis C virus genotype 1b, UniProt Q9WMX2)               IC50    250 to 1000 nM
 7  CNC(=O)c1c(-c2ccc(F)cc2)oc2cc(N(CCO)S(C)(=O)=O)c(-c3cc(C(=O)NC4(c5ccccc5)CC4)ccc3F)cc12  HCV NS5B RdRp genotype 1b (Hepatitis C virus genotype 1b, UniProt Q9WMX2)               IC50          < 250 nM
 8  CNC(=O)c1c(-c2ccc(F)cc2)oc2ccc(-c3cc(C(=O)NCC(C)C)ccc3OC3CCCC3)cc12  HCV NS5B RdRp genotype 1b (Hepatitis C virus genotype 1b, UniProt Q9WMX2)               IC50        > 10000 nM
 9  CNC(=O)c1ccc(-c2ccc(-c3ccc4oc(-c5ccc(F)cc5)c(C(=O)NC)c4c3)cc2C(=O)NCC(C)C)cn1  HCV NS5B RdRp genotype 1b (Hepatitis C virus genotype 1b, UniProt Q9WMX2)               IC50        > 10000 nM
10  CNC(=O)c1c(-c2ccc(F)cc2)oc2ccc(-c3cc(C(=O)NC4(c5ccccn5)CC4)c(OC)cc3C)cc12  HCV NS5B RdRp genotype 1b (Hepatitis C virus genotype 1b, UniProt Q9WMX2)               IC50          < 250 nM
11  CNC(=O)c1c(-c2ccc(F)cc2)oc2ccc(-c3cc(C(=O)NC4(c5ccccn5)CC4)ccc3OCCN(C)C)cc12  HCV NS5B RdRp genotype 1b (Hepatitis C virus genotype 1b, UniProt Q9WMX2)               IC50          < 250 nM
12  CNC(=O)c1c(-c2ccc(F)cc2)oc2ccc(-c3ccc(-c4ccnc(N)c4)c(C(=O)NCC(C)C)c3)cc12  HCV NS5B RdRp genotype 1b (Hepatitis C virus genotype 1b, UniProt Q9WMX2)               IC50           < 20 nM
13  CNC(=O)c1c(-c2ccc(F)cc2)oc2ccc(-c3cc(C(=O)NC4(c5ncccn5)CC4)ccc3C)c(F)c12 [drawing 587]  HCV NS5B RdRp genotype 1b (Hepatitis C virus genotype 1b, UniProt Q9WMX2)               IC50          < 250 nM
14  CNC(=O)c1c(-c2ccc(F)cc2)oc2ccc(-c3cc(C(=O)NC4(c5ccccn5)CC4)c(O)cc3Cl)cc12  HCV NS5B RdRp genotype 1b (Hepatitis C virus genotype 1b, UniProt Q9WMX2)               IC50          < 250 nM
15  CNC(=O)c1c(-c2ccc(F)cc2)oc2cc(N)c(-c3cc(C(=O)NC4(c5ccccc5)CC4)ccc3C)cc12  HCV NS5B RdRp genotype 1b (Hepatitis C virus genotype 1b, UniProt Q9WMX2)               IC50          < 250 nM
